# Target of assay: Sonic hedgehog protein (Mus musculus)
# Sequence (Q62226 25-198 limits assumed): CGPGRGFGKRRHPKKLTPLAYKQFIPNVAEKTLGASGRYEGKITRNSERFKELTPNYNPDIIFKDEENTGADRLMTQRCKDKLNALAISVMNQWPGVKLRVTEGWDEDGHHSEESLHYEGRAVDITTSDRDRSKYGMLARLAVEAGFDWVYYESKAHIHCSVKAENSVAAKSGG
# Assay notes: Inhibition of sonic hedgehog signaling in mouse Shh Light2 cells after […] by Bright-Glo luciferase assay
# Assay type: cell-based
Property label: IC50 (µM)
Field format: number, assumed µM, no unit text.

Find IC50 (Sonic hedgehog protein (Mus musculus)) for the entry `O=C(C[C@@H]1C/C=C/CCC(=O)O[C@H](c2ccccc2)CNC1=O)NCc1ccc(Cl)cc1`
4

----------
# Target of assay: UniProtKB Q5VTY9
# Sequence (Q5VTY9 whole entry, the tested form may be a part): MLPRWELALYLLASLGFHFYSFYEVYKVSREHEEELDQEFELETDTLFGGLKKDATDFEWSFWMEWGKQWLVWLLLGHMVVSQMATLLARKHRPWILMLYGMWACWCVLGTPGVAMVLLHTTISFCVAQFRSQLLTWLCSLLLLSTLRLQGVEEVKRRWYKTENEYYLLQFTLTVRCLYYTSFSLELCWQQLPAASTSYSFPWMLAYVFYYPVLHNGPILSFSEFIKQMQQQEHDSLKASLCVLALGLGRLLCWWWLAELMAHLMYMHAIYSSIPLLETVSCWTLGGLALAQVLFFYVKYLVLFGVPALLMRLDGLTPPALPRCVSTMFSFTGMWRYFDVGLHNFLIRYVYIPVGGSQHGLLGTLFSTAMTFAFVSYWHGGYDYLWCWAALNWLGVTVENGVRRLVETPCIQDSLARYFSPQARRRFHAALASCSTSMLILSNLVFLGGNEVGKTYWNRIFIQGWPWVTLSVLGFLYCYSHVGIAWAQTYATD
# Assay notes: Inhibition of 3C-FLAG/His8-tagged human HHAT expressed in HEK293 cells assessed as reduction in enzyme-mediated sonic hedgehog (1 to 11 residues) palmitoylation by click-ELISA method
# Format: cell-based
Property label: IC50 (nM)
Write the value in nM as a bare number.

Requested read-out IC50, target or system UniProtKB Q5VTY9, entry CCC(C)CNCC(=O)N1CCc2sccc2C1c1cccc(C)n1 (stereo unspecified)
200
